Molecular target: Caspase-3 (Homo sapiens);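 also: Dose-response selectivity test against caspase-3 for candidate inhibitors of sentrin-specific proteases (SENPs)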
Sequence (P42574 whole entry): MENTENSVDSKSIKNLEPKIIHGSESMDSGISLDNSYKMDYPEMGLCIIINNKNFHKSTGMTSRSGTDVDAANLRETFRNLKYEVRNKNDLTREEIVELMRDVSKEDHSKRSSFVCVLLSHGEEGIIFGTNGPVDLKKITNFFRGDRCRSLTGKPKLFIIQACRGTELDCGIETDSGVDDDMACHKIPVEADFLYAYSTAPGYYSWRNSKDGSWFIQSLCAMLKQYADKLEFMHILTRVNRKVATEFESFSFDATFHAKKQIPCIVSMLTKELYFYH
Format: functional
Active and inactive are the calls of the source.
observationType: IC50

Query string: Quick one: IC50 for `O=C(O)c1ccc(N/N=C/c2ccc(OC(=O)c3ccccc3Cl)cc2)cc1` ?
Result string: 14.8 µM (active)

Query string: Quick one: IC50 for Cc1ccc2c(c1)c(=O)c1c3n2CCN(C(=O)CCl)C3CC1 (stereo not given) ?
Result string: 14 µM (active)

Query string: Quick one: IC50 for `O=C(O)COc1ccccc1/C=N/NC(=O)CSc1nnc(SCc2ccc(Cl)cc2)s1` ?
Result string: 41.1 µM (active)

Query string: Quick one: IC50 for `NC(=O)C1CCN(C2=C(Cl)C(=O)c3ccccc3C2=O)CC1` ?
Result string: 7.35 µM (active)

Query string: Quick one: IC50 for `Cc1ccc(C)c(-c2nc3cc(N)ccc3o2)c1` ?
Result string: 27.5 µM (active)
